# System: human maximum recommended daily dose, FDA database
# protocol text: DSSTox (FDAMDD) FDA Maximum (Recommended) Daily Dose Database
# condition notes: TherapeuticCategory: topical anti inflammatory; hits give low values
# Description: The Food and Drug Administration (FDA) Center for Drug Evaluation and Research, Office of Pharmaceutical Science, Informatics and Computational Safety Analysis Staff's Maximum Recommended Daily Dose (FDAMDD) database contains values for over 1200 pharmaceuticals listed in Martindale: The Extra Pharmacopoeia (1973, 1983, and 1993) and The Physicians' Desk Reference (1995 and 1999). […]
readout name: maximum recommended daily dose (mmol/kg-bw/day)
Give your answer as a number; write no unit.

So what does the record say about maximum recommended daily dose (mmol/kg-bw/day) for C[C@@H]1C[C@H]2[C@@H]3CCC4=CC(=O)C=C[C@]4(C)[C@@]3(Cl)[C@@H](O)C[C@]2(C)[C@@]1(OC(=O)c1ccco1)C(=O)CCl ? 2.88e-05

---

# System: human maximum recommended daily dose, FDA database
# protocol text: DSSTox (FDAMDD) FDA Maximum (Recommended) Daily Dose Database
# condition notes: TherapeuticCategory: peripheral vasodilator; hits give low values
readout name: maximum recommended daily dose (mmol/kg-bw/day)

Example entries and their recorded answers appear below.
>  <compound>
CCCCN(CCCC)CCNc1nc(-c2ccccc2)no1

>  <tested on>
human maximum recommended daily dose, FDA database

>  <reported value>
0.0126

$$$$
>  <compound>
O=C(OC[C@H]1O[C@](O)(COC(=O)c2cccnc2)[C@@H](OC(=O)c2cccnc2)[C@@H]1OC(=O)c1cccnc1)c1cccnc1

>  <tested on>
human maximum recommended daily dose, FDA database

>  <reported value>
0.111

$$$$
>  <compound>
COc1cc(OC)c(C(=O)CCCN2CCCC2)c(OC)c1

>  <tested on>
human maximum recommended daily dose, FDA database

>  <reported value>
0.0325

$$$$

Query compound follows.
So what does the record say about maximum recommended daily dose (mmol/kg-bw/day) for CN(CCO)CC(O)Cn1cnc2c1c(=O)n(C)c(=O)n2C (centres undefined) (tested in a mixture with another compound) ? 0.0575

---

# System: human maximum recommended daily dose, FDA database
# protocol text: DSSTox (FDAMDD) FDA Maximum (Recommended) Daily Dose Database
# condition notes: TherapeuticCategory: antihypertensive; ACE inhibitor; hits give low values
readout name: maximum recommended daily dose (mmol/kg-bw/day)
Give your answer as a number; write no unit.

>  <smiles input>
CCC[C@H](N[C@@H](C)C(=O)N1[C@H](C(=O)O)C[C@@H]2CCCC[C@@H]21)C(=O)OCC

>  <reported value>
0.000361

$$$$
>  <smiles input>
CCOC(=O)[C@H](CCc1ccccc1)N[C@H]1CCc2ccccc2N(CC(=O)O)C1=O

>  <reported value>
0.00313

$$$$

So what does the record say about maximum recommended daily dose (mmol/kg-bw/day) for CCOC(=O)[C@H](CCc1ccccc1)N[C@@H](C)C(=O)N1Cc2ccccc2C[C@H]1C(=O)O ? 0.00303

So what does the record say about maximum recommended daily dose (mmol/kg-bw/day) for CCOC(=O)[C@H](CCc1ccccc1)N[C@@H](C)C(=O)N1Cc2cc(OC)c(OC)cc2C[C@H]1C(=O)O ? 0.00167

---

# Tested on: human maximum recommended daily dose, FDA database
# protocol text: DSSTox (FDAMDD) FDA Maximum (Recommended) Daily Dose Database
# condition notes: TherapeuticCategory: anabolic; antidepressant; serotonin inhibitor; hits give low values
# Text: The Food and Drug Administration (FDA) Center for Drug Evaluation and Research, Office of Pharmaceutical Science, Informatics and Computational Safety Analysis Staff's Maximum Recommended Daily Dose (FDAMDD) database contains values for over 1200 pharmaceuticals listed in Martindale: The Extra Pharmacopoeia (1973, 1983, and 1993) and The Physicians' Desk Reference (1995 and 1999). […]
readout name: maximum recommended daily dose (mmol/kg-bw/day)
Give your answer as a number; write no unit.

So what does the record say about maximum recommended daily dose (mmol/kg-bw/day) for CN1CCC(=C2c3ccccc3CCc3sccc32)CC1 ? 0.000169

---

# Test system: human maximum recommended daily dose, FDA database
# protocol text: DSSTox (FDAMDD) FDA Maximum (Recommended) Daily Dose Database
# condition notes: TherapeuticCategory: antifungal; hits give low values
readout name: maximum recommended daily dose (mmol/kg-bw/day)

Example entries and their recorded answers appear below.
>  <compound>
CCC(C)n1ncn(-c2ccc(N3CCN(c4ccc(OC[C@H]5CO[C@](Cn6cncn6)(c6ccc(Cl)cc6Cl)O5)cc4)CC3)cc2)c1=O (some centres undefined)

>  <reported value>
0.0142

$$$$
>  <compound>
COC1=CC(=O)C[C@@H](C)[C@]12Oc1c(Cl)c(OC)cc(OC)c1C2=O

>  <reported value>
0.0354

$$$$
>  <compound>
Nc1[nH]c(=O)ncc1F

>  <reported value>
1.16

$$$$

Query compound follows.
So what does the record say about maximum recommended daily dose (mmol/kg-bw/day) for C[C@@H]1[C@H](O)[C@@H](C)/C=C/C=C/C=C/C=C/C=C/C=C/C=C/[C@H](O[C@@H]2O[C@H](C)[C@@H](O)[C@H](N)[C@@H]2O)C[C@@H]2O[C@](O)(C[C@@H](O)C[C@@H](O)[C@H](O)CC[C@@H](O)C[C@@H](O)CC(=O)O[C@H]1C)C[C@H](O)[C@H]2C(=O)O ? 0.00162

---

# Test system: human maximum recommended daily dose, FDA database
# protocol text: DSSTox (FDAMDD) FDA Maximum (Recommended) Daily Dose Database
# condition notes: TherapeuticCategory: diagnostic aid; hits give low values
readout name: maximum recommended daily dose (mmol/kg-bw/day)

Example entries and their recorded answers appear below.
>  <molecule>
OCC(O)CO

>  <reported value>
10.8

$$$$
>  <molecule>
O=C1OC(c2ccc(O)c(S(=O)(=O)O)c2)(c2ccc(O)c(S(=O)(=O)O)c2)c2c(Br)c(Br)c(Br)c(Br)c21

>  <reported value>
0.00597

$$$$
>  <molecule>
CCOC(=O)CCCCCCCCC(C)c1cccc(I)c1 (stereo not given)

>  <reported value>
0.3

$$$$
>  <molecule>
CC1(C)C(\C=C/C=C\C=C/C=C2/N(CCCCS(=O)(=O)O)c3ccc4ccccc4c3C2(C)C)=[N+](CCCCS(=O)(=O)[O-])c2ccc3ccccc3c21

>  <reported value>
0.000645

$$$$

So what does the record say about maximum recommended daily dose (mmol/kg-bw/day) for CCCC(=O)Nc1c(I)cc(I)c(CC(CC)C(=O)O)c1I (stereo not given) ? 0.0754

---

# Test system: human maximum recommended daily dose, FDA database
# protocol text: DSSTox (FDAMDD) FDA Maximum (Recommended) Daily Dose Database
# condition notes: TherapeuticCategory: antimalarial; antirheumatic; lupus erythematosus suppressant; hits give low values
readout name: maximum recommended daily dose (mmol/kg-bw/day)

Fill in the recorded maximum recommended daily dose (mmol/kg-bw/day) for this molecule, with human maximum recommended daily dose, FDA database as test system: CCN(CCO)CCCC(C)Nc1ccnc2cc(Cl)ccc12 (stereo unspecified) 0.0298

---

# Tested on: human maximum recommended daily dose, FDA database
# protocol text: DSSTox (FDAMDD) FDA Maximum (Recommended) Daily Dose Database
# condition notes: TherapeuticCategory: cholinergic; hits give low values
Collected maximum recommended daily dose (mmol/kg-bw/day) values appear next to each entry.

>  <compound>
CN(C)C(=O)Oc1cccc([N+](C)(C)C)c1

>  <reported value>
0.028

$$$$
>  <compound>
CC(C[N+](C)(C)C)OC(N)=O (stereo not given)

>  <reported value>
0.0169

$$$$
>  <compound>
CC(C)(CO)C(O)C(=O)NCCCO (stereo not given)

>  <reported value>
0.0406

$$$$
>  <compound>
CC[N+](C)(C)c1cccc(O)c1

>  <reported value>
0.00347

$$$$

Query compound follows.
So what does the record say about maximum recommended daily dose (mmol/kg-bw/day) for CN(C)C(=O)Oc1ccc[n+](C)c1 ? 0.0766

---

# Test system: human maximum recommended daily dose, FDA database
# protocol text: DSSTox (FDAMDD) FDA Maximum (Recommended) Daily Dose Database
# condition notes: TherapeuticCategory: antiemetic; antispasmodic; hits give low values
readout name: maximum recommended daily dose (mmol/kg-bw/day)

So what does the record say about maximum recommended daily dose (mmol/kg-bw/day) for COc1cc(N)c(Cl)cc1C(=O)NC1CCN(Cc2ccccc2)CC1 ? 6.69e-05

---

# Tested on: human maximum recommended daily dose, FDA database
# protocol text: DSSTox (FDAMDD) FDA Maximum (Recommended) Daily Dose Database
# condition notes: TherapeuticCategory: antihypertensive; diagnostic aid; hits give low values
readout name: maximum recommended daily dose (mmol/kg-bw/day)

So what does the record say about maximum recommended daily dose (mmol/kg-bw/day) for Cc1ccc(N(CC2=NCCN2)c2cccc(O)c2)cc1 ? 0.000594

---

# System: human maximum recommended daily dose, FDA database
# protocol text: DSSTox (FDAMDD) FDA Maximum (Recommended) Daily Dose Database
# condition notes: TherapeuticCategory: keratolytic; hits give low values
readout name: maximum recommended daily dose (mmol/kg-bw/day)
Give your answer as a number; write no unit.

So what does the record say about maximum recommended daily dose (mmol/kg-bw/day) for CC1=C(/C=C/C(C)=C/C=C/C(C)=C\C(=O)O)C(C)(C)CCC1 ? 0.00666
